Value source: BigSolDB 2.1

We begin with a simple list: items and their reported solubility (mole fraction).
# settings: in n-octanol, 298.15 K

molecule	solubility (mole fraction)
O=C(Cn1cnc2c(sc(=S)n2-c2ccc(F)cc2)c1=O)NCC(O)(Cn1cncn1)c1ccc(F)cc1F (centres undefined)	0.000382
O=C(Cn1cnc2c(sc(=S)n2-c2ccc(Cl)cc2)c1=O)NCC(O)(Cn1cncn1)c1ccc(F)cc1F (centres undefined)	0.000617
COc1ccccc1-n1c(=S)sc2c(=O)n(CC(=O)NCC(O)(Cn3cncn3)c3ccc(F)cc3F)cnc21 (centres undefined)	0.00212
Cc1ccc(-n2c(=S)sc3c(=O)n(CC(=O)NCC(O)(Cn4cncn4)c4ccc(F)cc4F)cnc32)cc1 (centres undefined)	0.000368

###

# settings: in n-octanol, 308.15 K

compound	solubility (mole fraction)
Cc1ccc(-n2c(=S)sc3c(=O)n(CC(=O)NCC(O)(Cn4cncn4)c4ccc(F)cc4F)cnc32)cc1 (centres undefined)	0.000531
O=C(Cn1cnc2c(sc(=S)n2-c2ccc(Cl)cc2)c1=O)NCC(O)(Cn1cncn1)c1ccc(F)cc1F (centres undefined)	0.000773
COc1ccccc1-n1c(=S)sc2c(=O)n(CC(=O)NCC(O)(Cn3cncn3)c3ccc(F)cc3F)cnc21 (centres undefined)	0.00297
O=C(Cn1cnc2c(sc(=S)n2-c2ccc(F)cc2)c1=O)NCC(O)(Cn1cncn1)c1ccc(F)cc1F (centres undefined)	0.000495

###

# settings: in n-octanol, 313.15 K
Form field: solubility (mole fraction) (one value per entry).

molecule	solubility (mole fraction)
Cc1ccc(-n2c(=S)sc3c(=O)n(CC(=O)NCC(O)(Cn4cncn4)c4ccc(F)cc4F)cnc32)cc1 (centres undefined)	0.000638
COc1ccccc1-n1c(=S)sc2c(=O)n(CC(=O)NCC(O)(Cn3cncn3)c3ccc(F)cc3F)cnc21 (centres undefined)	0.00348
O=C(Cn1cnc2c(sc(=S)n2-c2ccc(Cl)cc2)c1=O)NCC(O)(Cn1cncn1)c1ccc(F)cc1F (centres undefined)	0.000861
O=C(Cn1cnc2c(sc(=S)n2-c2ccc(F)cc2)c1=O)NCC(O)(Cn1cncn1)c1ccc(F)cc1F (centres undefined)	0.000563

###

# settings: in n-octanol, 303.15 K
Catalogue of solubility (mole fraction) readings, one per entry.
outcome-measure: solubility (mole fraction)

compound	value-measured
O=C(Cn1cnc2c(sc(=S)n2-c2ccc(Cl)cc2)c1=O)NCC(O)(Cn1cncn1)c1ccc(F)cc1F (centres undefined)	0.000699
Cc1ccc(-n2c(=S)sc3c(=O)n(CC(=O)NCC(O)(Cn4cncn4)c4ccc(F)cc4F)cnc32)cc1 (centres undefined)	0.000444
COc1ccccc1-n1c(=S)sc2c(=O)n(CC(=O)NCC(O)(Cn3cncn3)c3ccc(F)cc3F)cnc21 (centres undefined)	0.00253
O=C(Cn1cnc2c(sc(=S)n2-c2ccc(F)cc2)c1=O)NCC(O)(Cn1cncn1)c1ccc(F)cc1F (centres undefined)	0.000439

###

# solubility (mole fraction) per record follows
# settings: in n-octanol, 293.15 K

compound	solubility (mole fraction)
O=C(Cn1cnc2c(sc(=S)n2-c2ccc(F)cc2)c1=O)NCC(O)(Cn1cncn1)c1ccc(F)cc1F (centres undefined)	0.000335
O=C(Cn1cnc2c(sc(=S)n2-c2ccc(Cl)cc2)c1=O)NCC(O)(Cn1cncn1)c1ccc(F)cc1F (centres undefined)	0.000548
COc1ccccc1-n1c(=S)sc2c(=O)n(CC(=O)NCC(O)(Cn3cncn3)c3ccc(F)cc3F)cnc21 (centres undefined)	0.00182
Cc1ccc(-n2c(=S)sc3c(=O)n(CC(=O)NCC(O)(Cn4cncn4)c4ccc(F)cc4F)cnc32)cc1 (centres undefined)	0.000299
